Data origin: patent US9518046B2

Target: PI3K (p110δ/p85α) (h) (Homo sapiens)
Sequence (O00329 whole entry): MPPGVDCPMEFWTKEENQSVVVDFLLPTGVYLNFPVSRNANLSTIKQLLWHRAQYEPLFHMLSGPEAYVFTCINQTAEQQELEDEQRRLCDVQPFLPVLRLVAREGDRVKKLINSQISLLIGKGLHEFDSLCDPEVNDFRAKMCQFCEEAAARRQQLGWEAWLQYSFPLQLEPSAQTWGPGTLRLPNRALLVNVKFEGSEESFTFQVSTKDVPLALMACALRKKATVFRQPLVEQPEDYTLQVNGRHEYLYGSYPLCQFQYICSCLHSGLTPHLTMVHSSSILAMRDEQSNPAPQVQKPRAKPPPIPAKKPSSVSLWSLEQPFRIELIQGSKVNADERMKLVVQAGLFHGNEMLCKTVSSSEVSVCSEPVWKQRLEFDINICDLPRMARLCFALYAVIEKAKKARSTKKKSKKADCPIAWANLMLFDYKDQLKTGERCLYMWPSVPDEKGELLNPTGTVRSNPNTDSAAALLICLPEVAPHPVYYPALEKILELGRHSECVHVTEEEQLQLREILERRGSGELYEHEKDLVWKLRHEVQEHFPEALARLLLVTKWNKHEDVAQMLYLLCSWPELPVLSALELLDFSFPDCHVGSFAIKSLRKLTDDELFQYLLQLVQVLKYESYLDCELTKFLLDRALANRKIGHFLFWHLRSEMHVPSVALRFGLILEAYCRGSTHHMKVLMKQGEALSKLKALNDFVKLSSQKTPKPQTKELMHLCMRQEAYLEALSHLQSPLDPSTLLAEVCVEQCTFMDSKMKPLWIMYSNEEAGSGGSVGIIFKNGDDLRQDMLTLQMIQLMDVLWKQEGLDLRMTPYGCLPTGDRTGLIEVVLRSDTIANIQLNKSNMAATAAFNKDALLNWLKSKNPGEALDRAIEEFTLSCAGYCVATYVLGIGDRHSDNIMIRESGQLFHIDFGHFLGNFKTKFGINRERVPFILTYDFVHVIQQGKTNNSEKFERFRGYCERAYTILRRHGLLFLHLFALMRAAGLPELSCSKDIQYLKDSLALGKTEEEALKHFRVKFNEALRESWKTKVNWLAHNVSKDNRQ
Sequence (P27986 whole entry partner): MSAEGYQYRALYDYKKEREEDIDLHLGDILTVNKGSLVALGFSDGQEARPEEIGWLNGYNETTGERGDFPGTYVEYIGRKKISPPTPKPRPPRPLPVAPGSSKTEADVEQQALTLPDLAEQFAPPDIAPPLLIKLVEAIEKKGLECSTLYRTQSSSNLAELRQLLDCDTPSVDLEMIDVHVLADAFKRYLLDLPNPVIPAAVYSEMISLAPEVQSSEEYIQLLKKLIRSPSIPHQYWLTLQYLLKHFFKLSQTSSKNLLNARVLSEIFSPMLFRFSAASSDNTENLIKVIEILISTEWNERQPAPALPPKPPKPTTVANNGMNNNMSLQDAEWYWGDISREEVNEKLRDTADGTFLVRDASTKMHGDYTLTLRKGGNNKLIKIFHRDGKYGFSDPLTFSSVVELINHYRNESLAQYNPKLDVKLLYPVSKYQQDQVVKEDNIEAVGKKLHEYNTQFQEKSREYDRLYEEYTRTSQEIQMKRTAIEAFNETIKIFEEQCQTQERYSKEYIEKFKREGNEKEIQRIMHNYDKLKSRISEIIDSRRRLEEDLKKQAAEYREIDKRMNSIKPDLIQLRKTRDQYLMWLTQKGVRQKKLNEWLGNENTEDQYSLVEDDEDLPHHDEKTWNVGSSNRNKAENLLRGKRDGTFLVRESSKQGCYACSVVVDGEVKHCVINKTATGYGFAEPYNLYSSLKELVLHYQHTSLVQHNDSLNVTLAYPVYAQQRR
Assay: PI3K (p110δ/p85α) (h) non-radioactive HTRF kinase assay
Conditions: Kinase inhibition data; performed at Millipore UK Ltd
pIC50: −log10 of the molar value.
Measure Name: pIC50

// known answers, use as guide
CC[C@H](Nc1ncnc(N)c1-c1nc(C)no1)c1nc2cccc(-c3cnn(C)c3)c2c(=O)n1C1CC1: 7.80
Cc1noc(-c2c(N)ncnc2N[C@@H](C)c2nc3cccc(-c4cnn(C)c4)c3c(=O)n2C2CC2)n1: 7.80
Cc1nnc(-c2c(N)ncnc2N[C@@H](C)c2nc3cccc(-c4cnn(C)c4)c3c(=O)n2C2CC2)o1: 7.33

A = Cc1nnc(-c2c(N)ncnc2N[C@@H](C)c2nc3cccc(Cl)c3c(=O)n2C2CC2)o1
B = Cc1nnc(-c2c(N)ncnc2N[C@@H](C)c2nc3cccc(-c4cnn(C)c4)c3c(=O)n2-c2ccccc2)o1
C = CC[C@H](Nc1ncnc(N)c1-c1nnc(C)o1)c1nc2cccc(-c3cnn(C)c3)c2c(=O)n1C1CC1
D = Cc1noc(-c2c(N)ncnc2N[C@@H](C)c2nc3cccc(-c4cnn(C)c4)c3c(=O)n2-c2ccccc2)n1
Input: Rank order required: pIC50, descending. Write the labels, ordered according to the request.
Output: D, B, A, C
(D: 8.40, B: 7.66, A: 7.30, C: 6.85)

* * *

Experiment: Pharmacokinetics after intravenous and oral administration in rats
Type: in vivo
Details: Rats; iv dosing; dose 1 mg/kg (0.5 for Ex. 1, 10, 11, 35; 0.48 for Ex. 24)
Measure Name: CL/F (mL/min/kg)

Reference set (5 entries):
CC[C@H](Nc1ncnc(N)c1-c1nnc(C)o1)c1nc2ccccc2c(=O)n1-c1ccccc1F (single isomer, unassigned): 70.5
CC[C@H](Nc1ncnc(N)c1-c1nnc(C)o1)c1nc2cccc(C)c2c(=O)n1C1CC1: 77.3
CC[C@H](Nc1ncnc(N)c1-c1nnc(C)o1)c1nc2cccc(Cl)c2c(=O)n1C1CC1: 41.2
CC[C@H](Nc1ncnc(N)c1-c1ncn(C)n1)c1nc2cccc(Cl)c2c(=O)n1-c1ccccc1: 43.3
CC[C@H](Nc1ncnc(N)c1-c1nc(C)no1)c1nc2cccc(Cl)c2c(=O)n1[C@@H]1C[C@@H]1F: 71.8

1 = Cc1nnc(-c2c(N)ncnc2N[C@@H](C)c2nc3cccc(-c4cnn(C)c4)c3c(=O)n2C2CC2)o1
2 = CC[C@H](Nc1ncnc(N)c1-c1nnc(C)o1)c1nc2cccc(-c3cnn(C)c3)c2c(=O)n1C1CC1
3 = CC[C@H](Nc1ncnc(N)c1-c1ncnn1C)c1nc2cccc(Cl)c2c(=O)n1-c1ccccc1
Input: With regard to CL/F, arrange the entries in ascending order, please. Could you list the labels in the order requested?
Output: 3, 1, 2

a = CC[C@H](Nc1ncnc(N)c1-c1nnc(C)o1)c1nc2cccc(C)c2c(=O)n1-c1ccccc1C (single isomer, unassigned)
b = CC[C@H](Nc1ncnc(N)c1-c1nc(C(N)=O)n(C)n1)c1nc2cccc(Cl)c2c(=O)n1C1CC1
c = Cc1nc(-c2c(N)ncnc2N[C@@H](C)c2nc3cccc(-c4cnn(C)c4)c3c(=O)n2-c2ccccc2)no1
d = CCc1nc(-c2c(N)ncnc2N[C@@H](C)c2nc3cccc(Cl)c3c(=O)n2C2CC2)no1
Input: Kindly order the items shown according to CL/F, from the highest value down. Write out the labels following the order that was asked for.
Output: d, a, b, c
(d: 97.5 mL/min/kg, a: 64.8 mL/min/kg, b: 26.2 mL/min/kg, c: 5.33 mL/min/kg)
